protocol: qHTS Assay for Lipid Storage Modulators in Drosophila S3 Cells
test conditions: BODIPY lipid droplet fluorescence, 18-24 h, cells fed with added oleic acid; series mostly up to 46.1 µM
Out of some 320,000 compounds screened, about 2,100 (0.66%) were called active. Inconclusive results (about 53%) are left out. Calls follow the shape of the dose curve; as a rule, active = well fitted inhibition curve with a large enough effect in the signal ratio, with a control signal flat (not every such curve was filed as active); inconclusive = small, poorly fitted or top-dose-only effect, or effect the other way, or a change in a side signal; inactive = flat fitted curve, though single readings scatter; the % refers to the signal ratio. The full list was thinned out, with actives kept by preference.
Outcome codes: active, inactive

>  <compound>
CCOc1ccccc1OCCn1ncc2ccc(OC)c(OC)c2c1=O

>  <classification>
inactive

$$$$
>  <compound>
CCC(C)(C)n1nnnc1C(c1ccc(N(C)C)cc1)N1CCN(C2CCCCC2)CC1 (centres undefined)

>  <classification>
inactive

$$$$
>  <compound>
CS(=O)(=O)N(CC(=O)N/N=C/c1ccco1)c1ccccc1Br

>  <classification>
inactive

$$$$
>  <compound>
COc1cc2c(cc1OC)C(c1cccc([N+](=O)[O-])c1)NC(=O)C2 (centres undefined)

>  <classification>
inactive

$$$$
>  <compound>
O=C(/C=C/c1ccc([N+](=O)[O-])cc1)c1cccs1

>  <classification>
inactive

$$$$
>  <compound>
FC(F)(F)c1cc(C(F)(F)F)c2ccc(N3CCN(c4ncccn4)CC3)nc2n1

>  <classification>
inactive

$$$$
>  <compound>
COc1cc2c(cc1OC)C(c1ccc(C)cc1)NC(=O)C2 (centres undefined)

>  <classification>
inactive

$$$$
>  <compound>
C=CCN(C(=O)c1csnn1)C(C(=O)NC1CCCC1)c1ccc(Cl)cc1 (centres undefined)

>  <classification>
inactive

$$$$
>  <compound>
O=C(/C=C/c1cccc([N+](=O)[O-])c1)c1cccs1

>  <classification>
active

$$$$
>  <compound>
C=CCN(C(=O)c1csnn1)C(C(=O)NC1CCCC1)c1c(F)cccc1Cl (centres undefined)

>  <classification>
active

$$$$
>  <compound>
COc1cccc(CNC(=O)c2ccc(NC(=O)CC3SC(N4CCCCC4)=NC3=O)cc2)c1 (centres undefined)

>  <classification>
inactive

$$$$
>  <compound>
O=C(NC1CCCCC1)c1cc(-c2ccc(F)cc2)on1

>  <classification>
active

$$$$
>  <compound>
CCOC(=O)C1CCCCN1Cc1cccc(Oc2ccccc2)c1 (centres undefined)

>  <classification>
inactive

$$$$
>  <compound>
CN(C(=O)CSc1nc2sc3c(c2c(=O)n1C)CCC3)C1CCS(=O)(=O)C1 (centres undefined)

>  <classification>
inactive

$$$$
>  <compound>
O=C(NC1CCCC1)C(c1ccc(F)cc1)N(C(=O)c1csnn1)C1CC1 (centres undefined)

>  <classification>
inactive

$$$$
>  <compound>
O=C(Nc1cccc(F)c1)c1c(F)c(F)c(F)c(F)c1F

>  <classification>
inactive

$$$$
>  <compound>
Oc1cccc(N2Cc3ccccc3C2)c1

>  <classification>
inactive

$$$$
>  <compound>
CCOC(=O)C1CCCCN1Cc1ccc(C(F)(F)F)cc1 (centres undefined)

>  <classification>
active

$$$$
>  <compound>
Cc1cc(C)cc(N(CCC(=O)Nc2nnc(C)s2)S(=O)(=O)c2ccc(Cl)cc2)c1

>  <classification>
inactive

$$$$
>  <compound>
O=C(/C=C/c1cccc([N+](=O)[O-])c1)Nc1ccc(NC(=O)c2cccs2)cc1

>  <classification>
inactive

$$$$
>  <compound>
COc1ccccc1CNC(=O)c1ccc(C)s1

>  <classification>
inactive

$$$$
>  <compound>
CSCC(=O)N1CCCC(CO)(CCCc2ccccc2)C1 (centres undefined)

>  <classification>
inactive

$$$$
>  <compound>
C=CCN(C(=O)c1csnn1)C(C(=O)NC1CCCCC1)c1ccc(F)cc1 (centres undefined)

>  <classification>
inactive

$$$$
>  <compound>
COc1ccccc1CNC(=O)COC(=O)c1ccc(C)s1

>  <classification>
active

$$$$
>  <compound>
COC(=O)CC(NC(=O)C1CC1)c1ccc2c(c1)OCO2 (centres undefined)

>  <classification>
inactive

$$$$
>  <compound>
Cc1ccc(-c2nc(C#N)c(NCCN3CCCCC3)o2)cc1

>  <classification>
inactive

$$$$
>  <compound>
Cc1ccc(-c2cc(C(=O)NC3CCCC3)no2)cc1

>  <classification>
inactive

$$$$
>  <compound>
O=C(Nc1nc2ccc([N+](=O)[O-])cc2s1)C1CCCO1 (centres undefined)

>  <classification>
inactive

$$$$
>  <compound>
CN(CCCN1CCOCC1)C(=O)c1cc(COc2c(F)cccc2F)on1

>  <classification>
inactive

$$$$
>  <compound>
O=C(COc1ccc([N+](=O)[O-])cc1)Nc1ccc(NC(=O)c2ccccc2)cc1

>  <classification>
inactive

$$$$
>  <compound>
COc1ccc(OC)c(-c2cc(C(=O)N3CCN(c4ncccn4)CC3)c3ccccc3n2)c1

>  <classification>
inactive

$$$$
>  <compound>
COc1cc2c(cc1OC)C(c1ccc([N+](=O)[O-])cc1)NC(=O)C2 (centres undefined)

>  <classification>
active

$$$$
>  <compound>
C=CCN(C(=O)c1csnn1)C(C(=O)NC1CCCCC1)c1ccccc1F (centres undefined)

>  <classification>
active

$$$$
>  <compound>
COC(=O)c1cc2c(N)c(C(=O)c3ccccc3)sc2nc1C(OC)OC

>  <classification>
inactive

$$$$
